- Test system: LLC-PK1
- assay_notes: Ratio of permeability from basolateral to apical over apical to basolateral side of pig MDR1 transfected LLC-PK1 cells
- Assay type: ADME, cell-based, Sus scrofa
readout_kind: Ratio

- Cc1noc(-c2c(Cl)cc(Cl)cc2-c2cnc([C@@H](C)NC(=O)[C@@](C)(O)C(F)(F)F)c(F)c2)n1: 1.3

I. COC(=O)c1c(Cl)cc(Cl)cc1-c1cnc([C@@H](C)NC(=O)[C@@](C)(O)C(F)(F)F)c(F)c1
II. COC(=O)c1c(F)cccc1-c1ccc(CNC(=O)C2(NC(=O)C(F)(F)F)CC2)c(F)c1
III. C[C@@H](NC(=O)[C@@](C)(O)C(F)(F)F)c1ncc(-c2cc(Cl)cc(F)c2-c2nnn(C)n2)cc1F
Query block: Provide the items ranked by increasing Ratio. Response field: labels, in requested order.
Result block: I, III, II

* * *

- assay_notes: Clearance in Beagle dog at 0.25 mg/kg, iv
- Format: ADME, organism-based, Canis lupus familiaris
- Parameters: dose 0.25 mg/kg, route intravenous
- condition_description: in vivo
readout_kind: clearance (mL/min/kg)

- COC(=O)c1c(Cl)cc(Cl)cc1-c1cnc([C@@H](C)NC(=O)[C@@](C)(O)C(F)(F)F)c(F)c1: 3.2

P. Cc1noc(-c2c(F)cc(Cl)cc2-c2cnc([C@@H](C)NC(=O)[C@@](C)(O)C(F)(F)F)c(F)c2)n1
Q. COC(=O)c1c(F)cccc1-c1ccc(CNC(=O)[C@@](C)(O)C(F)(F)F)c(F)c1
Query block: Hi! Which is lower in terms of clearance, the first one P or the second one Q ? To answer, give the label that identifies your chosen option.
Result block: P

1. C[C@@H](NC(=O)[C@@](C)(O)C(F)(F)F)c1ncc(-c2cc(Cl)cc(F)c2-c2nnn(C)n2)cc1Cl
2. Cc1noc(-c2c(Cl)cc(Cl)cc2-c2cnc([C@@H](C)NC(=O)[C@@](C)(O)C(F)(F)F)c(F)c2)n1
3. Cc1nc(-c2c(F)cc(Cl)cc2-c2cnc([C@@H](C)NC(=O)[C@@](C)(O)C(F)(F)F)c(F)c2)no1
4. C[C@@H](NC(=O)[C@@](C)(O)C(F)(F)F)c1ncc(-c2cc(Cl)cc(F)c2-c2nnn(C)n2)cc1F
Query block: Would you mind ranking these compounds by ascending clearance? A ranking is expressed here by listing the labels in the requested order.
Result block: 4, 3, 2, 1
(4: 0.22 mL/min/kg, 3: 0.42 mL/min/kg, 2: 0.91 mL/min/kg, 1: 1.3 mL/min/kg)

* * *

- Test system: LLC-PK1
- assay_notes: Ratio of permeability from basolateral to apical over apical to basolateral side of pig MDR1 transfected LLC-PK1 cells
- Assay type: ADME, cell-based, Sus scrofa
readout_kind: Ratio

- COC(=O)c1c(F)cccc1-c1ccc(CNC(=O)[C@@](C)(O)C(F)(F)F)c(F)c1: 1.6
- Cc1noc(-c2c(F)cc(Cl)cc2-c2cnc([C@@H](C)NC(=O)[C@@](C)(O)C(F)(F)F)c(F)c2)n1: 1.7
- C[C@@H](NC(=O)[C@@](C)(O)C(F)(F)F)c1ncc(-c2cc(Cl)cc(F)c2-c2nnn(C)n2)cc1Cl: 1.8
